Field: inhibition. Provide a value for each of the molecules that follow.
# targetOfAssay: Ephrin type-B receptor 3 (Homo sapiens);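 further: reported value is the mean percent inhibition of EPHB3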
# cond: at 0.1 µM
Your answer is read as %, so omit the unit and give the number.

*Q* So what does the record say about inhibition for `COc1ccc(-c2nn3ncccc3c2-c2ccnc(Nc3ccc4c(c3)OCCO4)n2)cc1` ?
*A* 1.77

*Q* Item under review: `CCn1c(-c2nonc2N)nc2c(C#CC(C)(C)O)nc(OC[C@H](N)c3ccccc3)cc21` . Reported inhibition?
*A* 0.72

*Q* Find the recorded inhibition belonging to `COC(=O)Nc1nc2ccc(Oc3ccc(NC(=O)Nc4cccc(Cl)c4)cc3)cc2[nH]1` and report it.
*A* 4.58

*Q* Fill in the blank: the reported inhibition of `NS(=O)(=O)c1ccc(N/N=C2\C(=O)Nc3ccc4ncccc4c32)cc1` is ____.
*A* 2.75

*Q* Which inhibition value is on record for `CCNC(=O)O[C@H]1CN[C@H](C#Cc2cc3ncnc(Nc4ccc(OCc5cccc(F)c5)c(Cl)c4)c3s2)C1` ?
*A* 3.91

*Q* So what does the record say about inhibition for `COc1cc(/C=N/Nc2ncnc3[nH]ncc23)ccc1O` ?
*A* 3.99

*Q* Sample `Cc1cccc(Nc2ncc(-c3ccccc3)o2)c1` — what was its inhibition?
*A* 1.56

*Q* State the recorded inhibition for this entry: `CC(=O)Nc1cccc(C#Cc2cncnc2Nc2ccc(OCc3cccc(F)c3)c(Cl)c2)c1`
*A* 4.08

*Q* Recorded inhibition for `COc1cccc(-n2ncc3c(N/N=C/c4ccc(F)cc4)ncnc32)c1` , please?
*A* 4.19

*Q* // returns reported inhibition for input `COc1cccc(-c2c[nH]c3c(N/N=C/c4ccncc4)ncnc23)c1`
*A* 3.32

*Q* May I ask what inhibition has been recorded for `COc1cc(N2CCN(C(C)C)CC2)ccc1Nc1nc(Nc2ccc(F)cc2C(N)=O)c2cc[nH]c2n1` ?
*A* 2.78

*Q* Need inhibition, item `c1cc(-c2cnn3nc(N4CCOCC4)ccc23)nc(NC2CC2)n1`
*A* 2.88

*Q* Which inhibition is listed for `CCOc1ccc2c(-c3ccnc(Nc4cccc(C(F)(F)F)c4)n3)cnn2n1` ?
*A* 3.96

*Q* Reported inhibition for `COc1ccc(-c2cc3c(N)ncnc3o2)cc1` : what is it?
*A* -1.39

*Q* // returns reported inhibition for input `COc1ccc2c(-c3ccnc(Nc4cccc(OC(F)(F)F)c4)n3)cnn2n1`
*A* 3.51

*Q* # input molecule: `NC(=O)c1sc(-n2cnc3ccc(C(F)(F)F)cc32)cc1OCc1ccccc1Br` ; wanted: its inhibition
*A* 7.23

*Q* State the recorded inhibition for this entry: `CCN(CC)S(=O)(=O)c1ccc(OC)c(Nc2ncc(-c3ccccc3)o2)c1`
*A* 3.77

*Q* Fill in: inhibition of `CN1CCC(n2cnc(-c3ccc(F)cc3)c2-c2ccnc(N)n2)CC1` is ___
*A* 4.01

*Q* Can you share its inhibition? I mean this molecule: `CCn1c(-c2nonc2N)nc2ccccc21`
*A* 5.49

*Q* I am curious: what inhibition value has been reported for `N#Cc1c(NC(=O)c2ccc(F)cc2)sc2c1CCCC2` ?
*A* 2.46

*Q* Which inhibition is reported for this molecule? `CN(C)CCOc1ccc(-c2nc(-c3ccncc3)c(-c3ccc4c(c3)CC/C4=N\O)[nH]2)cc1`
*A* 3.83

---

# targetOfAssay: Fibroblast growth factor receptor 1 (Homo sapiens) (UniProt P11362);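 further: values are the mean percent inhibition of FGFR1 across replicate measurements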
# Sequence (P11362 22-822 limits assumed): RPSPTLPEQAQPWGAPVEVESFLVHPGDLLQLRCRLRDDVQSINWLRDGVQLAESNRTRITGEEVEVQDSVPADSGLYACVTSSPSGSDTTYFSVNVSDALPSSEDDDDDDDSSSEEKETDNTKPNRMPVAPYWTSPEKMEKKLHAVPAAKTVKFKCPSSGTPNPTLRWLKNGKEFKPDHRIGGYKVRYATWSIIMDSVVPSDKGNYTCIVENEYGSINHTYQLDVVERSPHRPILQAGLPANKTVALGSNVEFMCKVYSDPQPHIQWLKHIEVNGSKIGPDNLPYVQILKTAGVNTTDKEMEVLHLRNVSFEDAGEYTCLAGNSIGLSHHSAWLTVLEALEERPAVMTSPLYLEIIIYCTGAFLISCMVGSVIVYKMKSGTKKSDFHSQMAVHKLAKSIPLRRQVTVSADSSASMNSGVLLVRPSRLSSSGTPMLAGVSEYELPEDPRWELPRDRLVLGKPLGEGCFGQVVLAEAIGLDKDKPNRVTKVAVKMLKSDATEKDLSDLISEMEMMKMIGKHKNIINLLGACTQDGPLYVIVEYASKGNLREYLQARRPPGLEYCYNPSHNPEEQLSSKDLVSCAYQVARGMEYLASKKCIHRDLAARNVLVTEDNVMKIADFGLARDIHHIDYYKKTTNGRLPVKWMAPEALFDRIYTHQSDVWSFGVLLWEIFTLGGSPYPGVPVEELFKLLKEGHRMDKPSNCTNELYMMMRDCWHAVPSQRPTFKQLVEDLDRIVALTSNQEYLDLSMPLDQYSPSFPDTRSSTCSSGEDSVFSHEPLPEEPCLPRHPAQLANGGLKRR
# cond: at 1 µM
I'd appreciate it if you could supply inhibition values for the items below.
Report as a plain number; the unit % is understood.

*Q* Item `CCN1CCC(CC(=O)Nc2n[nH]c3nnc(-c4cccc(F)c4F)cc23)CC1` has what recorded inhibition?
*A* 0.41

*Q* Using the record for `COc1ccc(-c2cc(-c3c[nH]nc3-c3ccccn3)ccn2)cc1` , report its inhibition.
*A* -0.51

*Q* inhibition for `COc1cc(Nc2nccc(Nc3ccc4c(C)n[nH]c4c3)n2)cc(OC)c1OC` ?
*A* 24.8

*Q* Entry under review: `Cc1cccc2c1NC(=O)/C2=N\Nc1ccc(S(N)(=O)=O)cc1` . Reported inhibition?
*A* 5.84

*Q* Quick one: inhibition for `CCc1nn2ncccc2c1-c1ccnc(NC2CC2)n1` ?
*A* 7.38

*Q* Recorded inhibition for `CN1CCC(n2cnc(-c3ccc(F)cc3)c2-c2ccnc(N)n2)CC1` , please?
*A* -2.26

*Q* Using the record for `c1ccc(COc2ccc(Nc3ncnc4ccc(-c5ccco5)cc34)cc2)cc1` , report its inhibition.
*A* -7.82

*Q* Fill in the blank: the reported inhibition of `CCOc1ccc2c(-c3ccnc(Nc4cccc(C(F)(F)F)c4)n3)cnn2n1` is ____.
*A* 7.08

*Q* Please report the recorded inhibition for `Cc1ccc(O)cc1Nc1ccnc2cc(-c3ccccn3)ccc12` .
*A* 46.6

*Q* Which inhibition is listed for `COC(=O)Nc1nc2ccc(S(=O)(=O)c3ccc(NC(=O)Nc4cc(C(F)(F)F)ccc4F)cc3)cc2[nH]1` ?
*A* 2.11

---

# targetOfAssay: Mitogen-activated protein kinase 12 (Homo sapiens) (UniProt P53778);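 further: values are averaged p38gamma kinase inhibition readings, compounds tested at 1 µM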
# Sequence (P53778 whole entry): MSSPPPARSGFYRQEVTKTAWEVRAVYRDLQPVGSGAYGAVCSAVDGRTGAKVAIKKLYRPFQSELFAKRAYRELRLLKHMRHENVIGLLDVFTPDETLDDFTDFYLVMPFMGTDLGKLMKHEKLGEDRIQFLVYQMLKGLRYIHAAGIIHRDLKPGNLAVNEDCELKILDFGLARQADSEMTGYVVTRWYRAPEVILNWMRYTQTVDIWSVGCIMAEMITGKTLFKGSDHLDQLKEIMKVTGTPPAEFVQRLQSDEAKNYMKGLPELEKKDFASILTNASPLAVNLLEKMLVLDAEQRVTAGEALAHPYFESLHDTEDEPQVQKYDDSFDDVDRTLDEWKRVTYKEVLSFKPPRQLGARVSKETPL
# cond: at 1 µM
Exercise: state measured inhibition for each of the compounds provided.
Report the value in % with no unit label.

*Q* Requested field: inhibition. Item: `Cc1ccc(O)cc1Nc1ccnc2cc(-c3ccccn3)ccc12`
*A* 3

*Q* Quick one: inhibition for `COc1cc2c(cc1Nc1nc(Nc3ccsc3C(N)=O)c3cc[nH]c3n1)N(C(=O)CN(C)C)CCC2(C)C` ?
*A* 4.23

*Q* Dear colleague, I am looking for the recorded inhibition of the following compound: `Cc1cccc(Nc2ncc(-c3ccccc3)o2)c1`
*A* 4.77

*Q* Given `CCn1cc(-c2ccnc3[nH]ccc23)c(-c2cccc(NC(=O)Nc3ccc(OCc4ccccc4)cc3)c2)n1` , state its recorded inhibition.
*A* -0.76

*Q* Any idea what its inhibition is? The compound is `NS(=O)(=O)c1ccc(N/N=C2\C(=O)Nc3ccc4ncccc4c32)cc1`
*A* 18.9

*Q* Requested field: inhibition. Item: `c1ccc(-c2nc3n(c2-c2ccc4c(c2)OCO4)CCC3)nc1`
*A* 1.88

*Q* Which measured inhibition value corresponds to `CN(C)CCOc1ccc(-c2nc(-c3ccncc3)c(-c3ccc4c(c3)CC/C4=N\O)[nH]2)cc1` ?
*A* 1.28

*Q* Sample `NC(=O)c1sc(-n2cnc3ccc(C(F)(F)F)cc32)cc1OCc1ccccc1Br` — what was its inhibition?
*A* 2.37

*Q* Quick one: inhibition for `CCN1CCC(CC(=O)Nc2n[nH]c3nnc(-c4cccc(F)c4F)cc23)CC1` ?
*A* 1.97

*Q* Give the measured inhibition of `CS(=O)(=O)CCNCc1coc(-c2ccc3ncnc(Nc4ccc(OCc5ccccc5)cc4)c3c2)c1` .
*A* 3.41

*Q* What value of inhibition has been reported for the following compound? `COC(=O)c1sc(-n2cnc3cc(OC)c(OC)cc32)cc1OCc1ccccc1C(F)(F)F`
*A* 2.9

*Q* I have this compound here, CC1=C(C(=O)Nc2cc(Cl)c3[nH]ncc3c2)C(c2ccc(C(F)(F)F)cc2)CC(=O)N1 (centres undefined) , and I need its recorded inhibition.
*A* 2.49

*Q* If you can, please state the reported inhibition value of `CCOc1ccc2c(-c3ccnc(Nc4cccc(C(F)(F)F)c4)n3)cnn2n1` .
*A* 0.81

*Q* # input compound: `COc1cc(Nc2nccc(Nc3ccc4c(C)n[nH]c4c3)n2)cc(OC)c1OC` ; wanted: its inhibition
*A* 1.69

*Q* I have this compound here, `CN1CCC(n2cnc(-c3ccc(F)cc3)c2-c2ccnc(Nc3ccccc3)n2)CC1` , and I need its recorded inhibition.
*A* 9.03

*Q* What value of inhibition has been reported for the following compound? `COc1ccc(-c2cc(-c3c[nH]nc3-c3ccccn3)ccn2)cc1`
*A* 2.33

*Q* Need inhibition of `Clc1ccc(-c2nn3ncccc3c2-c2ccnc(Nc3ccccc3)n2)cc1` , thanks.
*A* 1.71

*Q* Could you share which inhibition value was measured for `CCc1nn2ncccc2c1-c1ccnc(NC2CC2)n1` ?
*A* 3.05

*Q* // inhibition lookup, key: `CCN(CC)S(=O)(=O)c1ccc(OC)c(Nc2ncc(-c3ccccc3)o2)c1`
*A* 0.41

*Q* // returns reported inhibition for input `Fc1ccc(-c2nn3ccccc3c2-c2ccncc2)cc1`
*A* 1.62

*Q* Entry `COc1ccc(-c2oc3ncnc(N)c3c2-c2ccc(NC(=O)Nc3cc(C(F)(F)F)ccc3F)cc2)cc1` has what inhibition?
*A* 17.6

*Q* Find the recorded inhibition belonging to `COc1ccc(-c2cc3c(N)ncnc3o2)cc1` and report it.
*A* -1.89

*Q* inhibition lookup needed for `Fc1ccc(-c2cc(-c3c[nH]nc3-c3ccccn3)ccn2)cc1` , thanks.
*A* 3.28

*Q* # lookup: inhibition of `CCCN1CCC(c2ccc(Nc3nc(Nc4cc(F)ccc4C(N)=O)c4cc[nH]c4n3)c(OC)c2)CC1`
*A* 2.82

*Q* Value lookup for inhibition; key = `CCCN(CCS(C)(=O)=O)Cc1ccc(-c2ccc3ncnc(Nc4ccc(OCc5cccc(F)c5)c(Cl)c4)c3c2)o1`
*A* 1.28

*Q* Which measured inhibition value corresponds to `Fc1cccc(COc2ccc(Nc3ncnc4sc(-c5ccco5)cc34)cc2Cl)c1` ?
*A* 4.18

*Q* What measured inhibition goes with `COc1ccc2c(-c3ccnc(Nc4cccc(OC(F)(F)F)c4)n3)cnn2n1` ?
*A* 2.47

*Q* Give its inhibition value. Item: `O=C(O[C@H]1CN[C@H](C#Cc2cc3ncnc(Nc4ccc(Cc5ccccc5)cc4)c3s2)C1)N1CCOCC1`
*A* 1.72

*Q* Which measured inhibition value corresponds to `Nc1nc(-c2ccc(F)cc2)c(-c2ccc3ncccc3n2)s1` ?
*A* 2.9

*Q* Please report the recorded inhibition for `CC(C)(CO)CNC(=O)c1ccc2c(c1)/C(=N/Nc1ccc(S(N)(=O)=O)cc1)C(=O)N2` .
*A* 0.79

*Q* What value of inhibition has been reported for the following compound? `FC(F)(F)c1cccc(-c2nn3ncccc3c2-c2ccnc(Nc3ccc4c(c3)OCCO4)n2)c1`
*A* 2.93

*Q* Which inhibition is reported for this compound? `COc1cccc(-c2c[nH]c3c(N/N=C/c4ccncc4)ncnc23)c1`
*A* 14.7

*Q* What value of inhibition has been reported for the following compound? `COc1ccc(CNC(=O)c2ccc(-c3cc(-c4nnc(C)o4)ccc3C)cc2)cc1`
*A* 2.59

*Q* Given the compound `CCn1c(-c2nonc2N)nc2cnc(Oc3cccc(NC(=O)c4ccc(N(C)C)cc4)c3)cc21` , what is its reported inhibition?
*A* 1.5

*Q* I am curious: what inhibition value has been reported for `CNC(=O)c1cccc(C#Cc2cncnc2Nc2ccc(OCc3cccc(F)c3)c(Cl)c2)c1` ?
*A* -0.21

*Q* Which inhibition value belongs to `N#Cc1c(NC(=O)CN2CCOCC2)sc2c1CCCC2` ?
*A* 3.63

*Q* Fill in: inhibition of `c1ccc(COc2ccc(Nc3ncnc4ccc(-c5ccco5)cc34)cc2)cc1` is ___
*A* 0.69

*Q* Looking for the measured inhibition of `CC(C)COC(=O)c1ccc2c(c1)/C(=C/Nc1ccc(S(N)(=O)=O)cc1)C(=O)N2` , can you help?
*A* -0.52

*Q* Fill in the blank: the reported inhibition of `CC(=O)Nc1cccc(C#Cc2cncnc2Nc2ccc(OCc3cccc(F)c3)c(Cl)c2)c1` is ____.
*A* 1.97
